All figures here come from ChEMBL document CHEMBL1201862.

- measured_on: Voltage-gated N-type calcium channel alpha-1B subunit/Amyloid beta A4 precursor protein-binding family A member 1 (Homo sapiens, UniProt Q00975+Q02410)
- Sequence (Q00975 whole entry): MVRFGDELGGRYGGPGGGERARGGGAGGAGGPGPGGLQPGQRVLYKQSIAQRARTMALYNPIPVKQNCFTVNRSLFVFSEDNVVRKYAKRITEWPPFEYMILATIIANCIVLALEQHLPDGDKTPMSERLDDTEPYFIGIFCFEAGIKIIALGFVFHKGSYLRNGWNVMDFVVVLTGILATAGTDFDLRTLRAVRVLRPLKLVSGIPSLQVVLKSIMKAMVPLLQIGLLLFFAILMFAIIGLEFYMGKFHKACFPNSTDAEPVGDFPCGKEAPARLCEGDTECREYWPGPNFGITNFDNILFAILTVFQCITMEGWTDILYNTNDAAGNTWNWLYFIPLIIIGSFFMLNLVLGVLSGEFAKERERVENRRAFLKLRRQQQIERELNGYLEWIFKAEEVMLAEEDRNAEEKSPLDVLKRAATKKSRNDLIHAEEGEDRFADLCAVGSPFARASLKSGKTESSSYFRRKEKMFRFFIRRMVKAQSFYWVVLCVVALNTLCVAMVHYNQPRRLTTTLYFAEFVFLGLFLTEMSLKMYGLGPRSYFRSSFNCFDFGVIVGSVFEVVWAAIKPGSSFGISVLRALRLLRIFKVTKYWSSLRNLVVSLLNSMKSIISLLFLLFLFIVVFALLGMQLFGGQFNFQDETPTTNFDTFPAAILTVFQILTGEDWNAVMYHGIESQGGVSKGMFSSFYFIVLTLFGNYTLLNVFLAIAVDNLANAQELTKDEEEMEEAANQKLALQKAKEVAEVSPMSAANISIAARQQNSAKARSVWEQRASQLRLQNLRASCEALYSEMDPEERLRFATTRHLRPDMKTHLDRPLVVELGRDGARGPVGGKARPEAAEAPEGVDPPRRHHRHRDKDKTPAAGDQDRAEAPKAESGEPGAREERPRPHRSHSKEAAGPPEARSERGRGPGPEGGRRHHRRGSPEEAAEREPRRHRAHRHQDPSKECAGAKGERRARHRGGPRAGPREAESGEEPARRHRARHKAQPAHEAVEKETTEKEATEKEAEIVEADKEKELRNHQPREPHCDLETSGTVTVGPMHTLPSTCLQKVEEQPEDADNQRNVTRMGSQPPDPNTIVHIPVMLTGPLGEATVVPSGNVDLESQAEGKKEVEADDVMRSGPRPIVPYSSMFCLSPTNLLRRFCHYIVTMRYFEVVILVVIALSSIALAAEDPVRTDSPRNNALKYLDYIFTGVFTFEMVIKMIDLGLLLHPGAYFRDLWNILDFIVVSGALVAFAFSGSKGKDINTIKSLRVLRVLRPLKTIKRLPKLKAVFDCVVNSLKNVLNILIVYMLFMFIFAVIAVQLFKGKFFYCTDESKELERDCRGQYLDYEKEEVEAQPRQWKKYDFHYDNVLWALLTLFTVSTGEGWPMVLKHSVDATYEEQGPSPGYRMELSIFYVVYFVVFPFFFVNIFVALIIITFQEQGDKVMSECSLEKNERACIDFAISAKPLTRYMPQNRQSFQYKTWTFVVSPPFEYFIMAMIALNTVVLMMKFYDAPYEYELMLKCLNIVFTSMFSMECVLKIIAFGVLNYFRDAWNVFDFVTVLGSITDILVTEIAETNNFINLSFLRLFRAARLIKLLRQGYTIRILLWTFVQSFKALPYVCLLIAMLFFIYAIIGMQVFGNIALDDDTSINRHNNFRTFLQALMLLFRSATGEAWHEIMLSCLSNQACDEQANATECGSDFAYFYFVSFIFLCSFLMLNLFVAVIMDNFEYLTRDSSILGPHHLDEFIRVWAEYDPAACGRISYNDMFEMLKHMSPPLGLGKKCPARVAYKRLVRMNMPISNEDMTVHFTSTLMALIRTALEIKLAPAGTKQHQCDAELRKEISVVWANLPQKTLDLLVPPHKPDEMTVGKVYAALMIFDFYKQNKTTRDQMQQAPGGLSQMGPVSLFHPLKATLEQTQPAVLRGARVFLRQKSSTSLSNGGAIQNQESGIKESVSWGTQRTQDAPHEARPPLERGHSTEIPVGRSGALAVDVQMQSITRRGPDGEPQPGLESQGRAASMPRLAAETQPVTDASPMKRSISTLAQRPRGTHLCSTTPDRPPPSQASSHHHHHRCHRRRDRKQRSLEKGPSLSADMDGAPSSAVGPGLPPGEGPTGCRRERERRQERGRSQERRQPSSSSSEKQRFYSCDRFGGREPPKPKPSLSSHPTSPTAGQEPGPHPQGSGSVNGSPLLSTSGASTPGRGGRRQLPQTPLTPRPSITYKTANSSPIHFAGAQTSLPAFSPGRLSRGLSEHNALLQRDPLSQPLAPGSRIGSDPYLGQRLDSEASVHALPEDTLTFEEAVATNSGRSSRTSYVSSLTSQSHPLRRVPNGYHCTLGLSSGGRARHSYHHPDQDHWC
- Sequence (Q02410 whole entry): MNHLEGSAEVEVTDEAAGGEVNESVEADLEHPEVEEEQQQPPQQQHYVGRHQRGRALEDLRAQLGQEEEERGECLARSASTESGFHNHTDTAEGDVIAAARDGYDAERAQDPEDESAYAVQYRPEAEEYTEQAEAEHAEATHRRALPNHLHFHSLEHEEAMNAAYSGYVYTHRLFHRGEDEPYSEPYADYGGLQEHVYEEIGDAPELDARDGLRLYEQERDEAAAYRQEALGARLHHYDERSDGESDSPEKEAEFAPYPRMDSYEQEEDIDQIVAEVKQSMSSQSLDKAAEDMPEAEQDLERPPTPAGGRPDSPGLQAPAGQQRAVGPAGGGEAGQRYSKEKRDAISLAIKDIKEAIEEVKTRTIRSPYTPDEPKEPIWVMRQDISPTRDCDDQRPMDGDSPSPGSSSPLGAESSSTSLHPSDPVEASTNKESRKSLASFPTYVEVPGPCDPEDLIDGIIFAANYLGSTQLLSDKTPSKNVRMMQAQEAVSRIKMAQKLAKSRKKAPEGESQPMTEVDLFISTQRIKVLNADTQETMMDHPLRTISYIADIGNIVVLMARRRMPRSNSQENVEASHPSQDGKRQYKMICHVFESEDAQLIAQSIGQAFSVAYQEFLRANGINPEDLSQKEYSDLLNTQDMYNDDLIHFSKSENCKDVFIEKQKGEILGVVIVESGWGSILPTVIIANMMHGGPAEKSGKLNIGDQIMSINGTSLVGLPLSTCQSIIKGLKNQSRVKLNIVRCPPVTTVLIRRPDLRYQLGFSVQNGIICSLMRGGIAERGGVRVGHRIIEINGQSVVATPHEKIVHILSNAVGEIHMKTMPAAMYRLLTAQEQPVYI
- Format: protein assay
The source made the active and inactive calls.
// classify into Y = active, N = inactive

For orientation, consider the following solved cases.
query_smiles: CCC1=NNc2cccc3c(OC)ccc1c23
qualitative_label: Y
--
query_smiles: COc1ccc2nc(NC(=O)/C=C/c3ccc4c(c3)OCO4)sc2c1
qualitative_label: Y
--
query_smiles: COc1ccc(Cl)cc1NC(=O)c1nnn(CC(=O)Nc2ccc(OC)c(OC)c2)c1N
qualitative_label: N
--
query_smiles: CCc1nc2sc3c(=O)cc(O)[nH]c3c2cc1C
qualitative_label: Y

Turning to the following compound.
Req: Called result for "COc1cc(NC(=O)c2ccc(F)cc2)ccc1NC(=O)c1cc2ccccc2o1"
Resp: N

----------
- measured_on: Polyadenylate-binding protein 1 (Homo sapiens)
- Sequence (P11940 whole entry): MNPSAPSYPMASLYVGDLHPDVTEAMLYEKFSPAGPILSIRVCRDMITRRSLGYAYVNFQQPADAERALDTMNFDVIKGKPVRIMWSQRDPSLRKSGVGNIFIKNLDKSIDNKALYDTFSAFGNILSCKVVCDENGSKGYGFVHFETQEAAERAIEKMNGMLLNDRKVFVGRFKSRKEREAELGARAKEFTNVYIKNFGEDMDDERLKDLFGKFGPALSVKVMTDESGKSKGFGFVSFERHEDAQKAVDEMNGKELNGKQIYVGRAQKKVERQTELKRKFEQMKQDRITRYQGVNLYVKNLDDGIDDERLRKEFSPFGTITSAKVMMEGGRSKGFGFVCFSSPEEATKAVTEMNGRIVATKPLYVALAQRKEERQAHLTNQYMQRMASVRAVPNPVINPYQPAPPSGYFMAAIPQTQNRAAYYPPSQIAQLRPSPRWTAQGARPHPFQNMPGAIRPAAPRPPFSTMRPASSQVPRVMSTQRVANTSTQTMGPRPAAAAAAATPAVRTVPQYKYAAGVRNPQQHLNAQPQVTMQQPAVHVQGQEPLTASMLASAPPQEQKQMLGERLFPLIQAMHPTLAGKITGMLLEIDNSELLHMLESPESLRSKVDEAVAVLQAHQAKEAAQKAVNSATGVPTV
- protocol_notes: PABP1 MLLE–PAM2 interaction inhibitors, dose response, miRNA deadenylation inhibitor project, biochemical, fluorescence polarization, Cy5-PAM2 peptide, secondary (AID 602260)
- Type: functional
- measurement_conditions: read-out: IC50_Mean
Calls of active or inactive are those of the source.
reported_endpoint: IC50

Some entries whose results are on file:
compound: Cc1ccc(N2C(=O)CC(Sc3ccccc3C(=O)O)C2=O)c([N+](=O)[O-])c1 (stereo unspecified)
result: > 66 µM (inactive)
--
compound: Cc1ccc2c3c(cccc13)-c1ccccc1C2=O
result: 38.3 µM (inactive)
--
compound: COC(=O)c1cc2c(C)c(C)c3ccccn3c-2c1C(=O)OC
result: > 66 µM (inactive)
--
compound: COc1ccc(-n2ccnc(SCC(=O)NC3CCCC3)c2=O)cc1
result: > 66 µM (inactive)
--
compound: CNCc1ccccc1Sc1cc(O)ccc1O
result: > 66 µM (inactive)

Now look at this entry.
Req: Give recorded IC50 with Polyadenylate-binding protein 1 (Homo sapiens) for the following compound: "CSc1nsc(SCC(=O)NCc2ccccc2)n1"
Resp: > 66 µM (inactive)

----------
Give EC50 for every item shown.
- protocol_notes: C. albicans growth with fluconazole, confirmation, fluorescence, retest (AID 2467)
- Format: functional, cell-based
Activity calls are given as the source filed them.

Some entries whose results are on file:
query_smiles: CC(C)CCN1C(=O)c2ccc(C(=O)Nc3ccc(Br)cc3C(=O)O)cc2C1=O
EC50: 2.46 µM (active)

query_smiles: Cn1c(SC2=CS(=O)(=O)c3ccccc32)nc2ccccc21
EC50: > 38 µM (not active)

query_smiles: COc1cc(-c2nnc(NC(=O)c3ccc(S(=O)(=O)N4CCOCC4)cc3)o2)cc(OC)c1OC
EC50: 5.71 µM (active)

query_smiles: Cc1oc2c(F)c(F)c(F)c(F)c2c1S(=O)(=O)Nc1cccc(C(F)(F)F)c1
EC50: 0.859 µM (active)

query_smiles: CCOC(=O)c1cnc(-n2cc(C)cn2)nc1Nc1ccccc1OCC
EC50: > 38 µM (not active)

Now look at this entry.
Req: Which EC50 value belongs to "CCc1ccc(C(=O)NNc2ccc(F)cc2F)cc1" ?
Resp: > 38 µM (not active)

----------
- measured_on: Ubiquitin-conjugating enzyme E2 N (Homo sapiens)
- Sequence (P61088 whole entry): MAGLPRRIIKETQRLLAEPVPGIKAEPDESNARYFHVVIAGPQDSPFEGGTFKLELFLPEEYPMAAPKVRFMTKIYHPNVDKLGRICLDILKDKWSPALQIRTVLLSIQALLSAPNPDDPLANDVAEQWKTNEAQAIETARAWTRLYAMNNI
- Assay type: functional
Active and inactive are the calls of the source.
// classify into active, inactive

molecule: CCN1CCN(c2cc(C)c3cc(NC(=S)N4CCN(c5ccc(F)cc5)CC4)ccc3n2)CC1
qualitative_label: inactive
--
molecule: O/N=C/c1cn(-c2ccccc2)nc1-c1ccc2c(c1)OCCO2
qualitative_label: inactive
--
molecule: COC(=O)C1=C(C)N(Cc2ccccc2)C(NCCc2ccccn2)=N[C@H]1c1cccc(C(F)(F)F)c1
qualitative_label: inactive
--
molecule: Cc1nc2ccccc2n1C1CCN(CC(=O)Nc2ccccc2Br)CC1
qualitative_label: active
--
molecule: CCOC(=O)c1c(-c2ccccc2)oc2ccc(OCC(O)CN(C)C)cc12 (stereo unspecified)
qualitative_label: inactive
--
molecule: O=C(COC(=O)Cn1cnc2ccccc2c1=O)NCc1ccccc1Cl
qualitative_label: inactive
--
molecule: Cc1ccccc1OCC(O)CN1CCN(CCN2C(=O)c3cccc4cccc(c34)C2=O)CC1 (stereo unspecified)
qualitative_label: inactive
--
molecule: COc1ccc(C[C@H]2CN3C(=NC[C@@H]3Cc3ccccc3)N2CCNC(=O)CCC2CCCCC2)cc1
qualitative_label: inactive
--
molecule: C#CCOCCOCCOCCNc1nc(N2CCN(C(=O)[C@H](CCCCN)n3cc(CN)nn3)CC2)nc(N2CCN(C(=O)[C@H](CCCCN)n3cc(CN)nn3)CC2)n1
qualitative_label: active
--
molecule: Cc1cccc(N(C(=O)c2snc(C(N)=O)c2N)C(C(=O)NCC2CCCO2)c2c[nH]c3ccccc23)c1 (stereo unspecified)
qualitative_label: inactive

Req: Called result for "CCCc1nnc(NC(=O)c2nc(S(=O)(=O)Cc3cccc(C)c3)ncc2Cl)s1"
Resp: active

Req: Called result for "Cc1cc(C)c2sc(N(CCCN(C)C)C(=O)c3ccc(S(=O)(=O)N(C)C4CCCCC4)cc3)nc2c1"
Resp: active

Req: Called result for "N#Cc1nc(-c2cccc3ccccc23)oc1NCCN1CCCCC1"
Resp: inactive

Req: Called result for Oc1ccc(Cl)cc1Nc1nc(NCC2CCCO2)c2ccccc2n1 (stereo unspecified)
Resp: inactive

Req: Called result for "CCOC(=O)CSc1nc2ccccc2c(=O)n1CCCCCC(=O)NCc1ccco1"
Resp: inactive

Req: Called result for C#CCOCCOCCOCCNc1nc(N2CCN(C(=O)C([C@@H](C)O)n3cc([C@@H](N)CCCCN)nn3)CC2)nc(N2CCN(C(=O)C([C@@H](C)O)n3cc([C@@H](N)CCCCN)nn3)CC2)n1 (stereo partly specified)
Resp: inactive
